Tested on: PRKR;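 also: kd values determined as follow-up on hits from a single-replicate KINOMEscan panel screen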
Construct: gene EIF2AK2
pKd: −log10 of the molar value.
readout: pKd

Query :: Which pKd is listed for O=C1NC(=O)C(c2ccccc2)=C1Nc1cccc(O)c1 ?
Result :: < 5.00

###

Tested on: RIPK1;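 also: KINOMEscan kinase panel screen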
test_settings: concentration: 1 μM, replicates: in singlicate; n = 1
readout: %Inh (%)
Give bare numbers, in %.

For every item in the list below, what is its measured %Inh?
1. Cc1ccc(Oc2ccc(Nc3ncnc4cc[nH]c34)cc2C)cn1
2. Cc1nnc(-c2ccc(C)c(-c3ccc(C(=O)O)cc3)c2)o1 [GW608005]
3. COc1ccc(-c2coc3ccc(-c4nnc(SCc5cccc(C#N)c5)o4)cc23)cc1
4. COC(=O)c1c(-c2ccccc2)c2cc(C)ccc2c(=O)n1Cc1ccccc1
5. Nc1ncnc2c1ncn2-c1ccc(Cl)cc1 [AH2635]
6. O=C(Nc1n[nH]c2nc(-c3ccccc3)c(Cl)cc12)C1CC1 [SB-734909]

Result ::
0
5
0
0
17
55

For every item in the list below, what is its measured %Inh?
1. CCCNC(=O)Nc1ccc(Oc2ncnc3ccn(C)c23)cc1
2. CCn1c(-c2ccoc2)nc2cnccc21 [SB-733887]
3. COc1cc2ncn(-c3cc(OCCCc4ccccc4)c(C(N)=O)s3)c2cc1OC [GSK205189]
4. Cc1cccc(-c2nc(Nc3ccc4c(cnn4C)c3)c3ccccc3n2)n1 [GW876731]

Result ::
0
0
0
0
